Molecular target: NMDAR2C (Homo sapiens, UniProt Q14957)
Construct: expressed in transfected cells; host or cells: HEK cells (membrane extract)
Sequence (Q14957 20-1233, species assumed, other chains not shown): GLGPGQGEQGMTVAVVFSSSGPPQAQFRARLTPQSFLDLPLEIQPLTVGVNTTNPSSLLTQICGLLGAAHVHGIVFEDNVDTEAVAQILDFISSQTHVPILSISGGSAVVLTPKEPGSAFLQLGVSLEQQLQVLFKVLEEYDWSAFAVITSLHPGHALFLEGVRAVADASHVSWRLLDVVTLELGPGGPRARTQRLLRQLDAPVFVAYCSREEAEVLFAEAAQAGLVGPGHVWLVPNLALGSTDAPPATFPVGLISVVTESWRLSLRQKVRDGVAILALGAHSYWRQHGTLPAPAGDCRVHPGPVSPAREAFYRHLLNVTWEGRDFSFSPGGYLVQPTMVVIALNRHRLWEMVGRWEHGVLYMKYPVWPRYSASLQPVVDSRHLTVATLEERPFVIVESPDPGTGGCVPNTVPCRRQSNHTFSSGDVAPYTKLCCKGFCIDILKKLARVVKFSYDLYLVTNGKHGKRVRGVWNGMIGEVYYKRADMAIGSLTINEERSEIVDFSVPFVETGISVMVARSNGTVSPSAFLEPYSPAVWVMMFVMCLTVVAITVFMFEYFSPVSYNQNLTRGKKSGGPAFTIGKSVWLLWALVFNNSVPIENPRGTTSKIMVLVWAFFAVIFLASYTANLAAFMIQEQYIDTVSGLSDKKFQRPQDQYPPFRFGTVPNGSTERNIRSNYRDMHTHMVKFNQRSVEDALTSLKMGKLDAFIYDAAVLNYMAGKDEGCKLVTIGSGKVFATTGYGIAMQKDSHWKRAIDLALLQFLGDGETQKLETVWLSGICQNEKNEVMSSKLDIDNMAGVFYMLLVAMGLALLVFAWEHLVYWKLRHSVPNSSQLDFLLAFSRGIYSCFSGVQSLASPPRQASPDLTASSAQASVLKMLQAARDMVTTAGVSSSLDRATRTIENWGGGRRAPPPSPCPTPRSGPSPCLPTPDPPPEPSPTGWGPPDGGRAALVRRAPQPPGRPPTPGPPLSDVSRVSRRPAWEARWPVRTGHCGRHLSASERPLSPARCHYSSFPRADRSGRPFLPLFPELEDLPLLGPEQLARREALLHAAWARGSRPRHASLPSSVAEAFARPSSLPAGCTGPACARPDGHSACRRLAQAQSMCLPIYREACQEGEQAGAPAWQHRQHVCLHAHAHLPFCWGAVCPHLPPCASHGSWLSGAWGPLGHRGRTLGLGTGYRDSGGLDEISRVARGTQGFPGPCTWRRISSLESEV
Assay: [3H]MK-801 binding, NMDAR2C expressing HEK cell membranes
Assay type: biochemical
Settings: 50 μM glutamate
recorded.metric: NMDAR2C A: % maximal [3H]MK-801 binding relative to 1 mM glycine

| molecule | test.target | experimental.result |
| --- | --- | --- |
| CC(C)(C)OC(=O)N1CCNC2(CNC2=O)C1 (single isomer, unassigned) [EB-2] | NMDAR2C (Homo sapiens, UniProt Q14957) | + (<100%=+) |
| O=C1NCC12CNCCN2Cc1ccccc1 (single isomer, unassigned) | NMDAR2C (Homo sapiens, UniProt Q14957) | + (<100%=+) |
| CC(C)(C)OC(=O)N1CCN(C(=O)OC(C)(C)C)C2(CNC2=O)C1 (single isomer, unassigned) [EE-2] | NMDAR2C (Homo sapiens, UniProt Q14957) | + (<100%=+) |
